B1: TPR t1 (parent)
chain: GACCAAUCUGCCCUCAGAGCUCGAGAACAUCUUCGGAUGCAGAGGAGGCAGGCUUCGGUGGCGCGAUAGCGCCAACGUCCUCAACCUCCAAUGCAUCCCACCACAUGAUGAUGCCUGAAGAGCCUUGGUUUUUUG

Variants of: B1
Measurement Notes: polymerase ribozyme fitness, log enrichment relative to wild type (log ratio); higher = more active; in vitro selection for triplet polymerase activity
polymerase ribozyme fitness (log ratio) overview
Number, no unit, nothing else.

Please review the following examples before continuing.
Qu. Find the recorded polymerase ribozyme fitness (log ratio) belonging to C13U C34A G71C A121U and report it.
Ans. -2.27

Qu. A46G U78A U112G ?
Ans. 0.172

Qu. Could you do the same for C53U C124U , please?
Ans. 1.92

Qu. Also G69A U81A C124A ?
Ans. -1.99

Qu. C11G G36U G63A C98G , same question.
Ans. -6.37

Continuing:
Qu. For the variant shown here, A2U C64U C115G C124U , give the reported polymerase ribozyme fitness (log ratio).
Ans. -4.43

Qu. Item: C11U G45A G51A C76G A91C C114G
Ans. -5.71

Qu. How about G44C C53U C76U ?
Ans. -1.48

Qu. Next record, please: C8G A16G C56G C72A A100C
Ans. -1.46

Qu. Can you check U9A C12G U87G C99U next?
Ans. -2.31

Qu. Same for A41U G45A U55C G71A
Ans. -3

Qu. Next: C72A C85U C102U A121G U133A
Ans. 0.201

Qu. Quick one: C72A
Ans. 0.126

Qu. Also, C12G C89A please.
Ans. -1.41

Qu. Thanks! And C12U A50G G71U U130C ?
Ans. 0.0947

Qu. Follow-up entry: A6U C56U
Ans. 0.177
